# MEASUREMENT_NOTES: protein stability index of a GFP-peptide fusion (GPS, HEK-293T) (PSI 1-6); higher = more stable;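 also: 24-mer peptide tiles fused after GFP, lentivirally expressed, FACS-sorted into six equal bins by GFP/DsRed ratio, decoded by Illumina sequencing, PSI is the read-weighted mean bin number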
# TEST_SETTINGS: treatment: DMSO; c terminus: a fixed tail appended
Entries are grouped by protein stability index into these classes: lower level: < 3; middle level: ≥ 3 and < 4; upper level: ≥ 4

State the class of the sequence shown: MENIGAIQVLPKLSSSIIHEIDSI [KCNAB2] middle level

Please classify: RLEINVLKKIKEKDKENKFLCVLM [CLK3] lower level

Please let me know in which category the item IGSSSEKEIDDVIDEIISLESSYN [TFE3] belongs. upper level

Category lookup for the sequence KMQQSKNQVVSSTNGELNTDDPTA [CSNK1G3] upper level

Which protein stability index category applies to SMKGSCGIGGGIGGGSSRISSVLA [KRT16] here? lower level

Into which bin does this sequence go? SRQLLPGDEFSLREHELLCRADHG [ISL2] upper level

Which class holds QYSVEGGKETLTPSELRDLVTQQL [S100A14] ? upper level

For IAVAWIYGTKKFMQELTEMLGFRP [SLC6A17] , which protein stability index bin applies? lower level

Into which bin does this sequence go? ANTIRGGGCYFGPDVTQQLLQKYN [PPEF2] lower level

Each sequence maps to one class by protein stability index. Which class for EAITSASFLEQIMAPLQPSTSRAH [FAM189A2] ? middle level

Exam item: assign GLLAGVGYFAFMLFRKRLGSMILA [GDAP1] to the correct category. lower level

Note: place this sequence into its band. Item: SISKLSPFSEFFKLRFNRKKKGMY [PWWP2B] lower level

Hey, which category is AGKALVISGREVFEFRPELVNDDD [ZC3H15] in, do you know? upper level

Where do the numbers come from? From the supplement of paper PMC10567573.
